# Assay Target: SARS-CoV-1 Mpro (Severe acute respiratory syndrome coronavirus)
# Method Notes: biochemical
pIC50: −log10 of the molar value.
Label yes when pIC50 >= 7; otherwise no.

Q. Form field: pIC50 at least 7? Entry: CC(C)c1cccc2[nH]c(C(=O)N3C[C@H]4[C@@H]([C@H]3C(=O)N[C@H](C=O)C[C@@H]3CCNC3=O)C4(C)C)cc12
A. yes

Continuing:
Q. Form field: pIC50 at least 7? Entry: CC1(C)[C@@H]2[C@@H](C(=O)N[C@H](C=O)C[C@@H]3CCNC3=O)N(C(=O)c3cc4cccc(C(F)(F)F)c4[nH]3)C[C@@H]21
A. yes

Q. Form field: pIC50 at least 7? Entry: CC1(C)[C@@H]2[C@@H](C(=O)N[C@H](C=O)C[C@@H]3CCNC3=O)N(C(=O)c3cc4ccc(F)c(F)c4[nH]3)C[C@@H]21
A. yes

---

# Assay Target: SARS-CoV-1 Mpro (Severe acute respiratory syndrome coronavirus, UniProt P0C6X7)
# Method Notes: biochemical
Exercise: for every item that follows, state its recorded IC50.
Numbers only, in nM.

Reference set (5 entries):
Q. Using SARS-CoV-1 Mpro (Severe acute respiratory syndrome coronavirus, UniProt P0C6X7) as the test system, report measured IC50 of O=C[C@H](C[C@@H]1CCNC1=O)NC(=O)[C@@H]1[C@H]2C[C@H](F)[C@H](C2)N1C(=O)c1cc2ccccc2[nH]1 [Compound 106] .
A. 176

Q. Using SARS-CoV-1 Mpro (Severe acute respiratory syndrome coronavirus, UniProt P0C6X7) as the test system, report measured IC50 of NC(=O)C(=O)[C@H](C[C@@H]1CCNC1=O)NC(=O)[C@@H]1CC2(CC2)CN1C(=O)c1cc2ccccc2[nH]1 [Compound 35] .
A. 65.8

Q. Using SARS-CoV-1 Mpro (Severe acute respiratory syndrome coronavirus, UniProt P0C6X7) as the test system, report measured IC50 of Cc1ccc2cc(C(=O)N3C[C@H]4[C@@H]([C@H]3C(=O)N[C@H](C=O)C[C@@H]3CCNC3=O)C4(C)C)[nH]c2c1 [Compound 72] .
A. 58.9

Q. Using SARS-CoV-1 Mpro (Severe acute respiratory syndrome coronavirus, UniProt P0C6X7) as the test system, report measured IC50 of CC1(C)[C@@H]2[C@@H](C(=O)N[C@H](C=O)C[C@@H]3CCNC3=O)N(C(=O)CC3CCCC(F)(F)C3)C[C@@H]21 (stereo partly shown) [Compound 22] .
A. 27.7

Q. Using SARS-CoV-1 Mpro (Severe acute respiratory syndrome coronavirus, UniProt P0C6X7) as the test system, report measured IC50 of CC1(C)[C@@H]2[C@@H](C(=O)N[C@H](C=O)C[C@@H]3CCNC3=O)N(C(=O)Cc3ccc4c(c3)CCCC4)C[C@@H]21 [Compound 40] .
A. 35.3

Batch request: IC50 for each of the following molecules.
1. C[C@H](C(=O)N1C[C@H]2[C@@H]([C@H]1C(=O)N[C@H](C=O)C[C@@H]1CCNC1=O)C2(C)C)c1ccccc1 [Compound 104]
2. Cc1cccc2c1cc(C(=O)N1C[C@H]3[C@@H]([C@H]1C(=O)N[C@H](C=O)C[C@@H]1CCNC1=O)C3(C)C)n2C [Compound 118]
3. CC(C)(C(=O)N1C[C@H]2[C@@H]([C@H]1C(=O)N[C@H](C=O)C[C@@H]1CCNC1=O)C2(C)C)c1ccccc1 [Compound 48]

A.
1: 114; 2: 349; 3: 53.6

Batch request: IC50 for each of the following molecules.
1. CC1(C)[C@@H]2[C@@H](C(=O)N[C@H](C=O)C[C@@H]3CCNC3=O)N(C(=O)Cc3ccccc3)C[C@@H]21 [Compound 23]
2. O=C[C@H](C[C@@H]1CCNC1=O)NC(=O)[C@@H]1C[C@@H]2C[C@@H]2N1C(=O)c1cc2ccccc2[nH]1 [Compound 125]
3. CO[C@@H]1C[C@@H](C(=O)N[C@H](C=O)C[C@@H]2CCNC2=O)N(C(=O)c2cc3ccccc3[nH]2)C1 [Compound 121]
4. CC1(C)[C@@H]2[C@@H](C(=O)N[C@H](C=O)C[C@@H]3CCNC3=O)N(C(=O)c3cc4c(F)cccc4[nH]3)C[C@@H]21 [Compound 15]
5. CC1(C)C[C@@H](C(=O)N[C@H](C=O)C[C@@H]2CCNC2=O)N(C(=O)c2cc3cccc(F)c3[nH]2)C1 [Compound 62]

A.
23.3
685
294
32.7
77.1
